Values of AC50 reported for UniProt P08908 appear below.
reportedProperty: AC50

Oc1c(I)cc(Cl)c2cccnc12 [CLIOQUINOL] ... > 30 µM
CCCCC/C=C\C/C=C\C/C=C\CCCCC(=O)O [GAMOLENIC ACID] ... > 30 µM
Nc1ncnc(Nc2ccc(Cl)cc2)n1 [CHLORAZANIL] ... > 30 µM
c1ccc2c(CC3=NCCN3)cccc2c1 [NAPHAZOLINE] ... 0.114 µM
NCCCC(O)(P(=O)(O)O)P(=O)(O)O [ALENDRONIC ACID] ... > 30 µM
CN(C)CCN(Cc1ccc(Cl)cc1)c1ccccn1 [CHLOROPYRAMINE] ... > 30 µM
C[C@@H](O)[C@H]1C(=O)N2C(C(=O)O)=C([C@H]3CCCO3)S[C@H]12 [FAROPENEM] ... > 30 µM
CN1CCC[C@@H]1Cc1c[nH]c2ccc(CCS(=O)(=O)c3ccccc3)cc12 ... 0.0214 µM
O=C1c2c(O)cccc2Cc2cccc(O)c21 [ANTHRALIN] ... > 30 µM
C#C[C@]1(O)CC[C@H]2[C@@H]3CCC4=C(CCC(=O)C4)[C@H]3CC[C@@]21C [NORETHYNODREL] ... > 30 µM
CC(=O)OCC[N+](C)(C)C [ACETYLCHOLINE] ... > 30 µM
CC(=O)OC(C)OC(=O)C(C)c1ccc(-c2ccccc2)c(F)c1 (centres undefined) ... > 30 µM
CNC(=O)C[C@@H](N)C(=O)N[C@@H](C(=O)N[C@@H]1C(=O)N2[C@@H]1SC(C)(C)[C@@H]2C(=O)O)c1ccc(O)cc1 [ASPOXICILLIN] ... > 30 µM
C[C@@H]1C[C@H]2[C@@H]3C[C@H](F)C4=CC(=O)C=C[C@]4(C)[C@@]3(Cl)[C@@H](O)C[C@]2(C)[C@H]1C(=O)COC(=O)C(C)(C)C [CLOCORTOLONE PIVALATE] ... > 30 µM
CC(=O)/N=c1/sc(S(N)(=O)=O)nn1C [METHAZOLAMIDE] ... > 30 µM
CCC[C@@H]1C[C@@H](C(=O)N[C@@H]([C@H]2O[C@H](SC)[C@H](OP(=O)(O)O)[C@@H](O)[C@H]2O)[C@H](C)Cl)N(C)C1 [CLINDAMYCIN PHOSPHATE] ... > 30 µM
CNC(=O)Oc1ccc2c(c1)[C@]1(C)CCN(C)[C@@H]1N2C [PHYSOSTIGMINE] ... > 30 µM
CCCC(=O)O[C@H]1[C@H](C)O[C@@H](O[C@H]2[C@H](N(C)C)[C@@H](O)[C@H](O[C@H]3[C@@H](CC=O)C[C@@H](C)[C@@H](O)/C=C/C=C/C[C@@H](C)OC(=O)C[C@@H](O)[C@@H]3OC)O[C@@H]2C)C[C@@]1(C)OC(=O)CC [ROKITAMYCIN] ... > 30 µM
Cc1ccc([C@@H]2O[C@H](CO)[C@@H](O)[C@H](O)[C@H]2O)cc1Cc1ccc(-c2ccc(F)cc2)s1 [CANAGLIFLOZIN ANHYDROUS] ... > 30 µM

###

molecular target: Voltage-gated inwardly rectifying potassium channel KCNH2 (Homo sapiens); format: functional; conditions: read-out: AC50; note: assay procedure not described here
Sequence (Q12809 whole entry): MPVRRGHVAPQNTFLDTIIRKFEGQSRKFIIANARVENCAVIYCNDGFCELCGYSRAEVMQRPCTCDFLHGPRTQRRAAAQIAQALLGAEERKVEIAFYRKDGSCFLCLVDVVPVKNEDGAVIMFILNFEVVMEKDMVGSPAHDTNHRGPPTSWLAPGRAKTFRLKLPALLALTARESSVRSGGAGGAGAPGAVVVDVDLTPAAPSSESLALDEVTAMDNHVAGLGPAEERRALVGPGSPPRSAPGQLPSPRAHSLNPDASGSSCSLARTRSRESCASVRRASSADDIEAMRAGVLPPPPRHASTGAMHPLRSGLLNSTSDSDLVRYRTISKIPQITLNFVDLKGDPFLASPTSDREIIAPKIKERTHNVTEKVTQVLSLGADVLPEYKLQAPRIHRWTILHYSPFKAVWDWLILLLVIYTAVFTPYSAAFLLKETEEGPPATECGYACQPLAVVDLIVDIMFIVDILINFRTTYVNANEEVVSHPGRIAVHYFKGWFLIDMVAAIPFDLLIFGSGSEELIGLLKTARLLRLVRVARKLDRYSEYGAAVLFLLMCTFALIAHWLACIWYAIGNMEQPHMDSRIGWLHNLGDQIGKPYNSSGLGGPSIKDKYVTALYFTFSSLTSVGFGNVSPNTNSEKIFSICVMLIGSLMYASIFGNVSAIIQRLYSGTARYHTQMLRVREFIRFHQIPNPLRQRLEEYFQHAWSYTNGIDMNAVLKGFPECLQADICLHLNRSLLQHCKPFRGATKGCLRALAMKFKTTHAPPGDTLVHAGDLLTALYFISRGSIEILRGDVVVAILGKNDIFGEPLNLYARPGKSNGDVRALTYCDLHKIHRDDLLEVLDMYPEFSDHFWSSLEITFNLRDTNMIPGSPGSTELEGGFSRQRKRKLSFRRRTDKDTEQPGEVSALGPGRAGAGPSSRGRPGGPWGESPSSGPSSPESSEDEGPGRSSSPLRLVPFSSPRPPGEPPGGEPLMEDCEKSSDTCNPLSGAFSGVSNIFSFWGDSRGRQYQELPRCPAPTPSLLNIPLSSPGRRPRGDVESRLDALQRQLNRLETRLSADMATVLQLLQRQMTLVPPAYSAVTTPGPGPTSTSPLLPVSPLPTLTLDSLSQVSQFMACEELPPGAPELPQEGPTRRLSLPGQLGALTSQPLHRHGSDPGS
reportedProperty: AC50

CN(C)C(=O)Oc1cccc([N+](C)(C)C)c1 ... > 30 µM
CCOC(=O)NNc1ccc(N(CC)CC(C)O)nn1 (stereo not given) ... > 30 µM
CC1(C)O[C@@H]2C[C@H]3[C@@H]4CCC5=CC(=O)CC[C@]5(C)[C@@]4(F)[C@@H](O)C[C@]3(C)[C@]2(C(=O)CCl)O1 [HALCINONIDE] ... > 30 µM
CCCCC/C=C\C/C=C\C/C=C\CCCCC(=O)O ... > 30 µM
COc1cccc(N(C)C(=S)Oc2ccc3c(c2)CCCC3)n1 [LIRANAFTATE] ... > 30 µM

###

Measured AC50 of individual entries
molecular target: Alpha-2C adrenergic receptor (Homo sapiens); type: functional; note: assay procedure not described here
Sequence (P18825 whole entry): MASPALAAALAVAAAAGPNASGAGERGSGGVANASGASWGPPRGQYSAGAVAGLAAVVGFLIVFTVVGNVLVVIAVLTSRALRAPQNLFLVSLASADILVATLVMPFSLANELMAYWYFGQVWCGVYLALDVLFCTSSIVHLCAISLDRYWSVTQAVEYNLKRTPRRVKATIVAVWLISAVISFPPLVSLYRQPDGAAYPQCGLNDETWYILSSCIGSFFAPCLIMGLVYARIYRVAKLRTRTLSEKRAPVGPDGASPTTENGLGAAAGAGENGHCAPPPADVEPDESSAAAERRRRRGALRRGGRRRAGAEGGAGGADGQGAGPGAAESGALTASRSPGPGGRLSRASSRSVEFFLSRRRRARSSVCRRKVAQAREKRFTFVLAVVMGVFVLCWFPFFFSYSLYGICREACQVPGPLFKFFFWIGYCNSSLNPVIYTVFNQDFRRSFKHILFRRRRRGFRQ
reportedProperty: AC50

COCCOC(=O)C1=C(C)NC(C)=C(C(=O)OC/C=C/c2ccccc2)C1c1cccc([N+](=O)[O-])c1 (stereo unspecified) ... > 30 µM
COc1ccc(C(CN(C)C)C2(O)CCCCC2)cc1 (stereo unspecified) ... > 10 µM
O=C(Nc1nc(-c2cc(Cl)cs2)c(N2CCN(C3CCCCC3)CC2)s1)c1cnc(N2CCC(C(=O)O)CC2)c(Cl)c1 ... > 10 µM
N[C@H](Cc1cc(I)c(Oc2cc(I)c(O)c(I)c2)c(I)c1)C(=O)O ... > 10 µM
CC1(C)C(/C=C/C=C/C=C/C=C2\N(CCCCS(=O)(=O)O)c3ccc4ccccc4c3C2(C)C)=[N+](CCCCS(=O)(=O)[O-])c2ccc3ccccc3c21 [INDOCYANINE GREEN ACID FORM] ... 9.7 µM
CCCCNc1ccc(C(=O)OCCN(C)C)cc1 ... > 10 µM
COc1ccc(/C=C/C(=O)Nc2ccccc2C(=O)O)cc1OC ... > 30 µM
Cc1cc2nc3c(=O)[nH]c(=O)nc-3n(C[C@H](O)[C@H](O)[C@H](O)COP(=O)(O)O)c2cc1C [RIBOFLAVIN 5'-PHOSPHATE] ... > 30 µM
CNC(=O)c1cc(Oc2ccc(NC(=O)Nc3ccc(Cl)c(C(F)(F)F)c3)c(F)c2)ccn1 ... > 30 µM
CCCNC(C)C(=O)Nc1ccccc1C (stereo unspecified) ... > 30 µM
CCC(C)(Oc1ccc(C2(c3ccc(OC(C)(CC)C(=O)O)cc3)CCCCC2)cc1)C(=O)O (stereo unspecified) [CLINOFIBRATE] ... > 30 µM
Nc1nc2c(c(=O)[nH]1)N(C=O)C(CNc1ccc(C(=O)N[C@@H](CCC(=O)O)C(=O)O)cc1)CN2 (stereo partly specified) ... > 30 µM
N#C[C@@H]1CCCN1C(=O)CNC12CC3CC(CC(O)(C3)C1)C2 ... > 30 µM
C=CC(N)CCC(=O)O (stereo unspecified) ... > 10 µM
Cc1cccc(N(C)C(=S)Oc2ccc3ccccc3c2)c1 [TOLNAFTATE] ... > 30 µM
NC(=O)c1ncn([C@@H]2O[C@H](CO)[C@@H](O)[C@H]2O)n1 ... > 10 µM
CCN(CC)C(=O)C1CN2CCc3cc(OC)c(OC)cc3C2CC1OC(C)=O (stereo unspecified) [BENZQUINAMIDE] ... 1.7 µM
NC(=O)CCC/N=C(\c1ccc(Cl)cc1)c1cc(F)ccc1O [PROGABIDE] ... > 10 µM
c1ccc2c(CC3=NCCN3)cccc2c1 ... 0.33 µM
CC(NCCc1ccc(O)cc1)C(O)c1ccc(O)cc1 (stereo unspecified) ... > 30 µM
OCCN1CCN(CC/C=C2/c3ccccc3Sc3ccc(Cl)cc32)CC1 ... 0.16 µM

###

Biological target: 5-hydroxytryptamine receptor 1A (Homo sapiens); note: assay procedure not described here
Sequence (P08908 whole entry): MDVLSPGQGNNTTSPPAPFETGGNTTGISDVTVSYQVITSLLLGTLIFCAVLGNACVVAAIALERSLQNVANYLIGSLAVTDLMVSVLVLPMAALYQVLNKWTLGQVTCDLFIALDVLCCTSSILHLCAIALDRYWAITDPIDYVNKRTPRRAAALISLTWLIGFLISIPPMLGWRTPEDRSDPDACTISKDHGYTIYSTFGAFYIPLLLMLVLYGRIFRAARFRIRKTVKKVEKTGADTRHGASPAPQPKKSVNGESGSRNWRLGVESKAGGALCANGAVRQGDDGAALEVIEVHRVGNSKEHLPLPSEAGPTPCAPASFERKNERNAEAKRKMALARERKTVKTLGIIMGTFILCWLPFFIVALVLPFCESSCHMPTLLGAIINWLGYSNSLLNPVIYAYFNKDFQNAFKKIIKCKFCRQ
reportedProperty: AC50

CC(=O)Oc1ccccc1C(=O)Nc1ncc([N+](=O)[O-])s1 [NITAZOXANIDE] ... > 30 µM
O=C(O)c1cc(=O)c2ccccc2o1 [CHROMOCARB] ... > 30 µM
CCCCCCCCCCCCCCCCCC(=O)NCCCC[C@H](NC(=O)CC[C@@H](NC(=O)[C@H](C)NC(=O)[C@@H](C)O[C@H]1[C@H](O)[C@@H](CO)OC(O)[C@@H]1NC(C)=O)C(N)=O)C(=O)O (some centres not stated) [ROMURTIDE] ... 6.21 µM
CC[C@H]1OC(=O)[C@H](C)[C@@H](O[C@H]2C[C@@](C)(OC)[C@@H](O)[C@H](C)O2)[C@H](C)[C@@H](O[C@@H]2O[C@H](C)C[C@H](N(C)C)[C@H]2O)[C@](C)(OC)C[C@@H](C)C(=O)[C@H](C)[C@@H](O)[C@]1(C)O [CLARITHROMYCIN] ... > 30 µM
CN(C)CCCN1C(=O)c2cc([N+](=O)[O-])ccc2Oc2ccccc21 ... 4.17 µM
CCOC(=O)[C@H](CCc1ccccc1)N[C@H]1CS[C@H](c2cccs2)CN(CC(=O)O)C1=O [TEMOCAPRIL] ... > 30 µM
CC(C)COc1ccc(CNC(=O)N(Cc2ccc(F)cc2)C2CCN(C)CC2)cc1 [PIMAVANSERIN] ... > 30 µM
